src = the supplement of paper PMC11451515

System: P12-Ichikawa
Assay: cell viability relative to DMSO control; higher = less cytotoxic
Settings: RPMI 5 mM glucose + 10% dialyzed FBS; 48 h; 1.71 µM
measure name: cell viability

{"columns": ["molecule", "result value"],
 "data": [
  ["C[N]1N=CC=C1C/2=C(\\C)N(C(=O)C(=C2)/C(=O)NCC3=NC=C(C=C3)[S+](C)([O-])=O)C4=CC=CC(=C4)C(F)(F)F", "103%"],
  ["C[C@@H](N)C1CC[C@@H](CC1)C(=O)NC2=CC=NC=C2 (stereo partly specified)", "134%"],
  ["COc1cc2c(Nc3ccc(Cl)c(Cl)c3F)ncnc2cc1OC[C@@H]1C[C@@H]2CN(C)C[C@@H]2C1", "111%"],
  ["Cc1nc(N)ncc1-c1nc(N2CCOCC2)c2sc(C(C)(C)O)cc2n1", "8.68%"],
  ["N#CC[C@H](C1CCCC1)n1cc(-c2ncnc3[nH]ccc23)cn1", "87.7%"],
  ["N=C(N)NC(=N)N1CCOCC1", "96.8%"],
  ["COc1cc2ncnc(Nc3cccc(Cl)c3)c2cc1OC", "32%"],
  ["CN(C)CCOc1ccc(/C(=C(/CCCl)c2ccccc2)c2ccccc2)cc1", "80.3%"],
  ["Cc1ccc([S+](=O)([O-])Nc2cc(Cl)ccc2C(=O)Nc2nc(-c3ccccc3)cs2)cc1", "116%"],
  ["CC(C)(C)OC(=O)Nc1ccc(-c2cc(C(=O)NCCCCCCC(=O)NO)no2)cc1", "9.73%"],
  ["Cc1cnc(Nc2ccc(N3CCN(C)CC3)cc2)nc1Nc1cccc([S+](=O)([O-])NC(C)(C)C)c1", "92.7%"],
  ["Oc1c(Cl)cc(Cl)c2cccnc12", "99.1%"],
  ["CCOC(=O)N[C@@H]1CC[C@@H]2[C@@H](C1)C[C@H]1C(=O)O[C@H](C)[C@H]1[C@H]2/C=C/c1ccc(-c2cccc(F)c2)cn1", "122%"],
  ["C[C@H](NCc1ccc(OCc2cccc(F)c2)cc1)C(N)=O", "114%"],
  ["Oc1ccc(-c2ccc(-c3cc(Nc4cccc(CNC5CC5)c4)[nH]n3)cc2)c(O)c1", "101%"],
  ["CC(C)c1c(C(=O)Nc2ccccc2)c(-c2ccccc2)c(-c2ccc(F)cc2)n1CC[C@@H](O)C[C@@H](O)CC(=O)[O-]", "83.8%"],
  ["CC(S)C(=O)NCC(=O)O (stereo unspecified)", "113%"],
  ["CN(C(Cc1ccc(O[S+](=O)([O-])c2cccc3cnccc23)cc1)C(=O)N1CCN(c2ccccc2)CC1)[S+](=O)([O-])c1cccc2cnccc12 (stereo unspecified)", "97.8%"],
  ["NC(CO)C(=O)NNCc1ccc(O)c(O)c1O (stereo unspecified)", "94.2%"],
  ["O=C1CCCC(=O)C1C(=O)c1ccc(C(F)(F)F)cc1[N+](=O)[O-]", "110%"],
  ["O=C(O)Cc1cccc(OCCCN(Cc2cccc(C(F)(F)F)c2Cl)CC(c2ccccc2)c2ccccc2)c1", "101%"]
]}
